Ref: PubChem BioAssay AID1918993

# Test system: 233499-124-R-J3-PDC complex spheroid growth
# RUN_DESCRIPTION: Anticancer human tumor 233499-124-R-J3-PDC patient-derived colon adenocarcinoma cell line growth inhibition [AhR]
# CONDITION_DETAILS: second compound 1 µM; first compound 3 µM; hits give low values
Note to self: viability, T/C under 80% means criterion met, ties and anything higher get criterion not met.

compound="O=C(C=Cn1cnc(-c2cc(C(F)(F)F)cc(C(F)(F)F)c2)n1)NNc1cnccn1 + Cc1cncc(-c2nc(NCCc3c[nH]c4ccccc34)c3ncn(C(C)C)c3n2)c1" class_assignment="criterion met"
compound="O=C(C=Cn1cnc(-c2cc(C(F)(F)F)cc(C(F)(F)F)c2)n1)NNc1cnccn1 + CC(CO)NC(=O)c1cc(-c2ccc(Cl)cc2)nn(-c2cnn(C)c2)c1=O" class_assignment="criterion met"
compound="CCN(c1cc(-c2ccc(CN3CCOCC3)cc2)cc(C(=O)NCc2c(C)cc(C)[nH]c2=O)c1C)C1CCOCC1 + Cc1cncc(-c2nc(NCCc3c[nH]c4ccccc34)c3ncn(C(C)C)c3n2)c1" class_assignment="criterion not met"
compound="CCN(c1cc(-c2ccc(CN3CCOCC3)cc2)cc(C(=O)NCc2c(C)cc(C)[nH]c2=O)c1C)C1CCOCC1 + CC(CO)NC(=O)c1cc(-c2ccc(Cl)cc2)nn(-c2cnn(C)c2)c1=O" class_assignment="criterion not met"

Query compound follows.
Challenge: Regarding CCN(c1cc(-c2ccc(CN3CCOCC3)cc2)cc(C(=O)NCc2c(C)cc(C)[nH]c2=O)c1C)C1CCOCC1 + Cc1ccccc1N=Nc1ccc(NC(=O)c2ccnn2C)c(C)c1 , kindly confirm whether its viability, T/C is beneath 80%.
Response given: criterion not met

----------
Reported viability, T/C by item:
# Test system: 233499-124-R-J3-PDC complex spheroid growth
# RUN_DESCRIPTION: Anticancer human tumor 233499-124-R-J3-PDC cell line growth inhibition [AhR];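 note: spheroids exposed to agents for seven days before reading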
# CONDITION_DETAILS: second compound 3.16 µM; first compound 0.0949 µM; hits give low values
// note: answer is a bare numeric in %

Consider the following illustrative entries.
molecule="CCc1c2c(nc3ccc(O)cc13)-c1cc3c(c(=O)n1C2)COC(=O)[C@]3(O)CC + Cc1cncc(-c2nc(NCCc3c[nH]c4ccccc34)c3ncn(C(C)C)c3n2)c1" target="233499-124-R-J3-PDC complex spheroid growth" experimental_value=70
molecule="CC(C)CC(NC(=O)C(Cc1ccccc1)NC(=O)c1cnccn1)B(O)O (configuration not stated) + Cc1cncc(-c2nc(NCCc3c[nH]c4ccccc34)c3ncn(C(C)C)c3n2)c1" target="233499-124-R-J3-PDC complex spheroid growth" experimental_value=0.04
molecule="CCN(c1cc(-c2ccc(CN3CCOCC3)cc2)cc(C(=O)NCc2c(C)cc(C)[nH]c2=O)c1C)C1CCOCC1 + CC(CO)NC(=O)c1cc(-c2ccc(Cl)cc2)nn(-c2cnn(C)c2)c1=O" target="233499-124-R-J3-PDC complex spheroid growth" experimental_value=85.6
molecule="Nc1ncn(C2CC(O)C(CO)S2)c(=O)n1 (configuration not stated) + CC(CO)NC(=O)c1cc(-c2ccc(Cl)cc2)nn(-c2cnn(C)c2)c1=O" target="233499-124-R-J3-PDC complex spheroid growth" experimental_value=89.5
molecule="CCc1c2c(nc3ccc(O)cc13)-c1cc3c(c(=O)n1C2)COC(=O)[C@]3(O)CC + Cc1ccccc1N=Nc1ccc(NC(=O)c2ccnn2C)c(C)c1" target="233499-124-R-J3-PDC complex spheroid growth" experimental_value=91.8

Challenge: Print 233499-124-R-J3-PDC complex spheroid growth viability, T/C for CCN(c1cc(-c2ccc(CN3CCOCC3)cc2)cc(C(=O)NCc2c(C)cc(C)[nH]c2=O)c1C)C1CCOCC1 + Cc1ccccc1N=Nc1ccc(NC(=O)c2ccnn2C)c(C)c1 .
Response given: 105

Challenge: Provide the reported viability, T/C (system: 233499-124-R-J3-PDC complex spheroid growth) for O=C(C=Cn1cnc(-c2cc(C(F)(F)F)cc(C(F)(F)F)c2)n1)NNc1cnccn1 + CC(CO)NC(=O)c1cc(-c2ccc(Cl)cc2)nn(-c2cnn(C)c2)c1=O
Response given: 84.9
